tested on: HepG2; experiment: GSK_TCMDC: Percent inhibition of human HepG2 cell line. Test compounds present at 10uM.; type: functional
Measured Quantity: Inhibition

Some compounds with recorded Inhibition:
{"columns": ["Compound", "Reported Measurement"],
 "data": [
  ["COC(=O)c1cccc(CNCc2cccc(-c3ccc(-c4nc5cccc(C)c5[nH]4)cc3)c2)c1.O=C(O)C(F)(F)F", "3%"],
  ["COc1ccc(S(=O)(=O)NC2CCN(c3ccnc4cc(Cl)ccc34)C2)cc1.O=C(O)C(F)(F)F (stereo unspecified)", "12%"],
  ["OCCN1CCN(C(=S)Nc2ccccc2)CC1", "6%"],
  ["Cc1cccc2nc(-c3ccc(-c4ccc(NC(=O)Nc5ccc(Cl)c(Cl)c5)cc4)cc3)[nH]c12", "37%"],
  ["Oc1ccc2[nH]cc(C3CCN(CCC(c4ccccc4)c4ccccc4)CC3)c2c1", "27%"]
]}

Here is another compound to look at.
**Query** Recall the reported Inhibition of O=C1C2C(c3ccc(Cl)c(Cl)c3)N3CC(OCc4ccccc4)CC3(C(=O)O)C2C(=O)N1c1ccc(Br)cc1 (stereo unspecified) when tested on HepG2.
**Result** 14%

###

test system: Plasmodium falciparum; test: GSK_TCMDC: Inhibition of Plasmodium falciparum 3D7 in whole red blood cells, using parasite LDH activity as an index of growth. Test compounds present at 2uM; format: functional
Measured Quantity: Inhibition (%)
Expressed in %, but write only the number.

{"columns": ["Molecule", "Inhibition (%)"],
 "data": [
  ["COCC(=O)N(Cc1ccccc1-c1cccc(CNCc2ccc3c(c2)OCO3)c1)C1CCN(Cc2ccccc2)CC1.O=C(O)C(F)(F)F", 94],
  ["Cl.O=c1nc(NCCCNCc2cc3c(Cl)cc(Cl)cc3[nH]2)[nH]c2ccsc12", 96]
]}

**Query** System Plasmodium falciparum. Read-out Inhibition. Item `Cc1cc(N[C@@H](Cc2ccccc2)C(=O)NCCCOC(C)C)nc(NCC2CCCCC2)n1.O=C(O)C(F)(F)F` . Report value.
**Result** 94

**Query** Print Plasmodium falciparum Inhibition for `Cc1cc(N2CCCC2)nc(NC(=N)Nc2cccc(C(F)(F)F)c2)n1` .
**Result** 100

###

tested on: HepG2; test: GSK_TCMDC: Percent inhibition of human HepG2 cell line. Test compounds present at 10uM.; assay type: functional
Checkbox rule: Inhibition lower than 30% = satisfied; Inhibition not lower than 30% = not satisfied.

A selection of reference data follows.
{"columns": ["Compound", "Classification"],
 "data": [
  ["COc1cc2c(c(Cl)c1OC)CCN(Cc1ccccc1)CC2c1ccc(NC(=O)C(F)(F)F)cc1 (centres undefined)", "satisfied"],
  ["Cc1cccc2nc(-c3cccc(-c4cccc(NC(=O)CN5CCN(C)CC5)c4)c3)[nH]c12", "not satisfied"],
  ["CN1CC(c2ccccc2)c2cc(O)c(CN3CCCCC3)cc2CC1Cc1ccccc1.Cl (centres undefined)", "satisfied"],
  ["Br.C/C=C/C=C/C1=NCCc2cc(OCCC)ccc21", "satisfied"],
  ["O=C(Nc1ccc(OC2CCN(Cc3ccsc3)CC2)c(Cl)c1)c1ccc(F)cc1.O=C(O)C(F)(F)F", "not satisfied"]
]}

**Query** Determine if O=C(Nc1cccc(F)c1)NC1CCN(CCCCCNC(=O)C2CC2c2ccc(Cl)c(Cl)c2)CC1 (centres undefined) shows Inhibition strictly lower than 30%.
**Result** not satisfied

**Query** In plain terms, does `O=[N+]([O-])c1ccc(/C=N/O)nc1` come in under 30% for Inhibition?
**Result** not satisfied

**Query** Say whether its Inhibition is strictly beneath 30%. Entry: `O=C(Nc1cccc(-c2cccc(-c3nc4cc(F)ccc4[nH]3)c2)c1)c1csnn1`
**Result** satisfied

**Query** Quick check: does `COc1ccc(C=NN=c2cc[nH]c3ccccc23)c2ccccc12` have Inhibition under 30%?
**Result** satisfied
